# measurement.notes: yeast display, Sf9 membrane polyspecificity reagent, FACS + sequencing; frameworks hold sequencing errors
property.name: polyreactivity (PSR sort gate)

Known polyreactivity (PSR sort gate) results, listed for orientation:
seq.string: QVQLVESGGGLVQAGGSLRLSCAASGSTFYLNVMGWYRQAPGKERELVAAISSSGGSTYYADSVKGRFTISRDNAKNTVYLQMNSLKPEDTAVYYCNKVSAFPHYSGYDYWGQGTQVTVSS
polyreactivity (PSR sort gate): low polyreactivity
--
seq.string: QDQLVESGGGLVQAGGSLRLSCAASGSIFERYTMGWSRQAPGKERELVAAITTNGGSTYADSVKGRFTISRDNAKNTVYLQMNTLKPEDTADYYCNVDVYLYAKEYDYWGQGTQVTVSS
polyreactivity (PSR sort gate): high polyreactivity
--
seq.string: QVQLVESGGGLVQAGGSLRLSCAASGRTFGYNAMGWYRQAPGKERELVATISWGCGSTYYADSLKWRFTISPDNAKNTVYLQMNSLKPEDTAVYYCNKVHYGRLHSYSRAIYGEDYWGQGTQVTVSS
polyreactivity (PSR sort gate): high polyreactivity
--
seq.string: QVQLVESGGGLVQAGGSLRLSCAASGRTFGWYTMGWYRHAPGKERELVAAISRSGTSTYYADSVKGRFTISRDNAKNTVYLQMHSLKPEDTAVYYCAQYVNARGGNDWGQGTLVTVSS
polyreactivity (PSR sort gate): high polyreactivity
--
seq.string: QVQLVESGGGLVKAGGSLRLSCAASGFISSSYAMGWYRQAPGKERELVAVITRSGGSTYYADSVKGRFTISRDNAKNTVYLQMNSLKPEDTGVYYCNTDARSKKYIFDFDYWGQGTQVTVSS
polyreactivity (PSR sort gate): high polyreactivity

Complete the entry with polyreactivity (PSR sort gate) for "QVQLVESGGGLVQAGGILRLSWAASGSTFTAYAMGWYRQAPGKERELVAAINTSGGNTYYADSVKGRFTISRDNAKNTVYFQMNSLKPEDTAVYYCAADYKARYSEKFDYWGQGTQVSVSS"
low polyreactivity

Using the record for "QVQLVESGGGLVQAGGSLRLSCAASGSTSAYYAMGWYRQAPGKERELVAAISWSGGLTYYADSVKGRFTISRDNAKNTVYLQMNSLKPEDTAVYYCAASSYPYGYDYWGQGTQVTVSS" , state its measured polyreactivity (PSR sort gate).
high polyreactivity

Query polyreactivity (PSR sort gate) for "QVQLVESGGGLVQAGGSLRLSCAASGSTFVPYAMGWYRQAPGKERELVAAISGTGGRTSYADSVKGRFTISRDNAKNTVYLQMNSLKPEDTAVYYCAAADGIYARYFFSRFPRFDYWGQGTQVTVSS"
low polyreactivity

Using the record for "QVQLVESGGGLVQAGGSLRLSCAASGRIFNYNAMGWYRQAPGKERELVAVITSGDSTNYADSVKGRFTISRDNAKNTVYLQMNSLKPEDTEVYYCAAEYYSIRYGPHSIEVYGMDYWGQGTQVTVSS" , state its measured polyreactivity (PSR sort gate).
low polyreactivity

Dear colleague, please send me the reported polyreactivity (PSR sort gate) for "QVQLVESGGGLVQAGGSLRLSCAASVFIFDRYAMGWYRQAPGKERELVAAISSGGSTYYADSVKGRFTISRDNAKNTVYLQMNSLKPEDTAVYYCAAESWLNFIYEYDYWGQGTQVTVSS" when you can.
low polyreactivity

Give the measured polyreactivity (PSR sort gate) for "QVQLQESGGLVQAGGSLRLSCAASGSISGRNVMGWYRQAPGKEREFVASITDGSSTNYADSVKGRFTISRDNAKNTVFLQMNSLKPKDTAVYYCAAYAQGAKSFGYWGRGTQVTVSS"
low polyreactivity
